Below, each entry is listed alongside its reported growth.
Test system: UO-31 renal
Assay: NCI-60 one-dose screen, 48 h (100 = growth as untreated, 0 = no growth, -100 = all killed)
Settings: 10 µM
This is part of a sample that, as a whole, favours compounds with a hit. Of some 83,000 tested, about 20% had one in any assay.
readoutKind: growth (%)

{"columns": ["compound", "readoutKind", "quantitativeResult"],
 "data": [
  ["Cc1cc(C(O)(c2ccc(Nc3ccccc3)cc2)c2ccc(Nc3ccc(S(=O)(=O)O)cc3)cc2)ccc1N (stereo unspecified)", "growth", 3.47],
  ["O=C(CCl)N1CCN(C/C=C/c2ccccc2)CC1", "growth", 93.1],
  ["CC(=O)c1ccc(C)c(N)c1", "growth", 81.4],
  ["C/C(=C\\c1ccc([N+](=O)[O-])cc1)C(=O)O", "growth", 95.3],
  ["O=C(O)/C=C/c1ccc2c(c1)CCC2", "growth", 99.7],
  ["Nc1nc(OCc2ccccc2)c2[nH]cnc2n1", "growth", 96.9]
]}

* * *

Below, each entry is listed alongside its reported growth.
Test system: MDA-MB-435 melanoma
Assay: NCI-60 one-dose screen, 48 h (100 = growth as untreated, 0 = no growth, -100 = all killed)
Settings: 10 µM
Compounds without any hit were thinned out: in the full panel of roughly 83,000, 20% have a hit. Activity calls are given as the source filed them. Rule for the calls: active = growth percent below 10; inactive = the rest.

{"columns": ["compound", "growth"],
 "data": [
  ["CC(=O)OCC(=O)[C@@]1(O)CC[C@H]2[C@@H]3CC[C@@H]4C[C@H](O)CC[C@]4(C)[C@H]3C(=O)C[C@@]21C", "103% (inactive)"],
  ["C#Cc1cccc(NC(=O)c2ccc(Cl)cc2Cl)c1", "103% (inactive)"],
  ["COc1ccccc1NC(=O)C1=C(C)NC(C)=C(C(=O)Nc2ccccc2OC)C1c1cccc([N+](=O)[O-])c1", "75.4% (inactive)"],
  ["COc1ccc(C2OC(N)=C(O)C2=O)cc1OC (configuration not stated)", "110% (inactive)"],
  ["c1ccc(CN2COc3c(ccc4c3OCN(Cc3ccccc3)C4)C2)cc1", "22.1% (inactive)"],
  ["Clc1ccc(-c2n[nH]c3c2Cc2ccccc2-3)cc1Cl", "107% (inactive)"],
  ["N=c1c(C(=O)OCc2ccccc2)ncc(CCl)n1O", "96.1% (inactive)"],
  ["CC(=O)NCc1cc(C)c(C)cc1C", "114% (inactive)"],
  ["O=C(O)c1ccnc(Br)c1", "104% (inactive)"],
  ["Cc1cc2ccccc2c(O)c1C#N", "108% (inactive)"],
  ["CCCCNC(=O)C(=O)NCCCC", "104% (inactive)"],
  ["CCCNC(=O)c1ccc(S(N)(=O)=O)cc1", "117% (inactive)"],
  ["COC(=O)c1cc(-c2ccc(Cl)c(Cl)c2)[nH]c(=O)c1C#N", "104% (inactive)"],
  ["N#Cc1ccc(OC(=O)Nc2ccc(Cl)c(Cl)c2)cc1", "99.3% (inactive)"],
  ["COc1cc2nn(-c3ccccc3N)nc2cc1OC", "96.8% (inactive)"],
  ["CCC(O)CC(CC)CO (configuration not stated)", "114% (inactive)"],
  ["CC1Cc2ccccc2O1 (configuration not stated)", "124% (inactive)"],
  ["Nc1ccc(NC(=O)c2cccc(N)c2)cc1", "104% (inactive)"],
  ["COc1cc(C2NC(=O)C(C#N)=C(Nc3cccc(C)c3)S2)ccc1O (configuration not stated)", "104% (inactive)"],
  ["CCC(C)(O)c1ccc(C)cc1 (configuration not stated)", "106% (inactive)"],
  ["CCCCN(CCCC)CCCO", "117% (inactive)"],
  ["CN(C)CCC(=O)c1ccc(O)cc1", "110% (inactive)"],
  ["CCOC(=O)c1cc2cccc(OC)c2oc1=O", "110% (inactive)"],
  ["C#CC(C(C)C)N(CCO)CCCC (configuration not stated)", "98.6% (inactive)"],
  ["COc1ccc(NC(=O)CCl)cc1", "87% (inactive)"],
  ["COc1cccc(COC(=O)Nc2ccccc2)c1OC", "91.7% (inactive)"],
  ["CCCCOC(=O)c1ccc(C(C)C)cc1", "103% (inactive)"]
]}

Where do these numbers come from? They come from PubChem BioAssay (NCI).
